Data provenance is ChEMBL document CHEMBL1126714.

- Tested on: Nucleic Acid
- experimentNotes: Thermal denaturation in alternating poly(dG-dC)-poly(dG-dC) homopolymer (GC)
- Assay type: nucleic-acid assay
Could you please mark condition met for values of Tm below 3 °C and condition not met for values at or above it?

query: Tm strictly < 3 °C for this compound? N=C(N)c1ccc2c(ccn2CCCn2ccc3cc(C(=N)N)ccc32)c1
result: condition not met

query: Tm strictly < 3 °C for this compound? CNc1ccc2[nH]c(CCc3nc4cc(NC)ccc4[nH]3)nc2c1
result: condition not met

query: Tm strictly < 3 °C for this compound? Cn1cc(NC(=O)c2cc(NC(=O)CNC(=N)N)cn2C)cc1C(=O)NCCC(=N)N
result: condition met

query: Tm strictly < 3 °C for this compound? N=C(N)c1ccc2[nH]c(CCCCCCCCc3nc4cc(C(=N)N)ccc4[nH]3)nc2c1
result: condition not met

Continuing:
query: Tm strictly < 3 °C for this compound? N=C(N)c1ccc2[nH]c(CCCc3nc4cc(C(=N)N)ccc4[nH]3)nc2c1
result: condition not met
